# subjectOfTest: HDAC6 (Homo sapiens)
# Construct: purchased Enzo Life Sciences
# Sequence (Q9UBN7 1-1215): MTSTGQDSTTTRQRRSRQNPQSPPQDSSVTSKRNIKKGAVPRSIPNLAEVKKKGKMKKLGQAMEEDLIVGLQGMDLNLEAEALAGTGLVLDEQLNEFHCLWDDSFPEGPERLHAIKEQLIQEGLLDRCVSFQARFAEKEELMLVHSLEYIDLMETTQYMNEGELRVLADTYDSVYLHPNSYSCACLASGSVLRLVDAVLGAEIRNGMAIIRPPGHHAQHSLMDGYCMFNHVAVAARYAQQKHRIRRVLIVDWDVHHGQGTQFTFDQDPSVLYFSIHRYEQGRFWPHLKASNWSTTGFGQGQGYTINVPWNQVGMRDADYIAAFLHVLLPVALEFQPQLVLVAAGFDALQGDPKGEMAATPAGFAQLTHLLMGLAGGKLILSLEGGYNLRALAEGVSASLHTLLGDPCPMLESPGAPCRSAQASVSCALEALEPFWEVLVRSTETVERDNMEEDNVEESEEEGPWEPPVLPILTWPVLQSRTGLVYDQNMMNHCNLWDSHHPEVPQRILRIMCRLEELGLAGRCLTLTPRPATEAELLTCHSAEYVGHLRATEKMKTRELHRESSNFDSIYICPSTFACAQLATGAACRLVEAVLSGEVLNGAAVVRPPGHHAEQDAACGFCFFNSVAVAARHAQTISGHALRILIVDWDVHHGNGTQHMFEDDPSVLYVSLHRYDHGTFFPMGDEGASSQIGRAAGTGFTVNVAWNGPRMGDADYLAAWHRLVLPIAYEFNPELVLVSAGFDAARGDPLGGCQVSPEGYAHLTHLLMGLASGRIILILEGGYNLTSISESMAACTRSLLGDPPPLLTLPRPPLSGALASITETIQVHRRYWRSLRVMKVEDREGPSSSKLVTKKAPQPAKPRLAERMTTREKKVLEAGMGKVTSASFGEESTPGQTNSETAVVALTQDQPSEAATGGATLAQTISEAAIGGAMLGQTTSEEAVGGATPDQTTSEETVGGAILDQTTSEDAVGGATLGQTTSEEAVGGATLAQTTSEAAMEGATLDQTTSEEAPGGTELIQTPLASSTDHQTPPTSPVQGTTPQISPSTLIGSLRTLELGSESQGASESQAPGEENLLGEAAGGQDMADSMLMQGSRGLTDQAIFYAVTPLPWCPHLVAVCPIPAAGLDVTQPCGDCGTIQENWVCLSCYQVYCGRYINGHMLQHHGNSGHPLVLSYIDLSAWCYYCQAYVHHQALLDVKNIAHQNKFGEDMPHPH
# measurementDescription: Fluorimetric measurement of HDAC6 activity (FLUOR DE LYS kit)
# Format: biochemical
# condition: HDAC6; values as listed in Table S1 beside docking score; read-out: IC50
IC50 values for the compounds below.
All answers are understood in µM, so give the number only.

C=C(C)[C@@H]1CC=C(CNC(=O)c2ccc(/C=C/C(=O)NO)cc2)CC1 [Compound 38a]	7.74

Now look at this entry.
input: Please report the recorded IC50 for CC1(C)[C@H]2CC[C@@H](CNC(=O)c3ccc(/C=C/C(=O)NO)cc3)[C@@H]1C2 [Compound 38c] .
output: 8.03

###

Measured IC50 at 24 h accompanies every entry in the list below.
# measurementDescription: Cell viability, MTT test
# Assay type: cell-based
# condition: human, SH-SY5Y neuroblastoma cells, 24-h exposure, read-out: IC50 cytotoxic action

Consider the reported IC50 at 24 h for these compounds:
C=C(C)[C@@H]1CC=C(CNC(=O)c2ccc(/C=C/C(=O)NO)cc2)CC1 [Compound 38a]	> 100 µM
CC1(C)[C@@H]2CC=C(C(=O)NO)[C@H]1C2 [(+)-19]	> 100 µM
CC(C)=CCCC(C)CC(=O)NO (stereo not shown) [Compound 10, N-Hydroxy-3,7-dimethyloct-6-enamide]	> 100 µM
C=C(C)[C@@H]1CC=C(CNC(=O)CCCCCCC(=O)NO)CC1	> 100 µM
CC(C)c1ccc(CNC(=O)/C=C/c2ccc(C(=O)NO)cc2)cc1 [Compound 35b]	> 100 µM
C=C(C)[C@@H]1CC=C(CNC(=O)/C=C/c2ccc(C(=O)NO)cc2)CC1 [Compound 35a]	89.2 µM

input: Given the compound CC1(C)[C@H]2CC=C(C(=O)NO)[C@@H]1C2 [(-)-19] , what is its reported IC50 at 24 h?
output: > 100 µM

input: Requested field: IC50 at 24 h. Item: CC1=CC[C@@H](CC(=O)NO)C1(C)C [(+)-13]
output: > 100 µM

input: Name the recorded IC50 at 24 h for CC(C)CCCC(C)CC(=O)NO (stereo not shown) [Compound 8, N-Hydroxy-3,7-dimethyloctanamide] .
output: > 100 µM

input: Report IC50 at 24 h for CC(CCCC(C)(C)O)CC(=O)NO (stereo not shown) [Compound 5, N,7-dihydroxy-3,7-dimethyloctanamide] please.
output: > 100 µM

input: Could you tell me which IC50 at 24 h is on file for CC1=CC[C@H](CC(=O)NO)C1(C)C [(-)-13] ?
output: > 100 µM

input: Given C=C(C)[C@@H]1CC=C(C(=O)NO)CC1 , state its recorded IC50 at 24 h.
output: > 100 µM

input: Which IC50 at 24 h reading was recorded for the compound CC1(C)[C@H]2CC[C@@H](CNC(=O)c3ccc(/C=C/C(=O)NO)cc3)[C@@H]1C2 [Compound 38c] ?
output: 90.5 µM

input: Quick one: IC50 at 24 h for CC(C)c1ccc(CNC(=O)c2ccc(/C=C/C(=O)NO)cc2)cc1 [Compound 38b] ?
output: > 100 µM

input: Which IC50 at 24 h is listed for CC1(C)[C@H]2CC[C@@H](CNC(=O)/C=C/c3ccc(C(=O)NO)cc3)[C@@H]1C2 [Compound 35c] ?
output: 86.7 µM

input: What value of measured IC50 at 24 h is listed for C=C(C)[C@@H]1CC=C(CNC(=O)CCCCCCCC(=O)NO)CC1 ?
output: 89.4 µM
